- Test target: T1, human IL-11 (human, UniProt P20809 22-199)
- T1 construct: bought from Invigate; also called hIL-11; hIL11
- T1 sequence: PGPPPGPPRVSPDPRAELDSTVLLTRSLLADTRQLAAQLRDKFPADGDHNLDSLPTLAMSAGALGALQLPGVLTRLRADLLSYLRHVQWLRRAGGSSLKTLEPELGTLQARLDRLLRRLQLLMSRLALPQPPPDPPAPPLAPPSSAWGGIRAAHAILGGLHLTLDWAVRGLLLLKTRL
- Protocol: SPR, antibody captured, IL-11 as analyte
Below, each of the binders is paired with its reported Kd value.
Answer format: numeric, nM implied, no suffix.

- TPP-27156 (antibody, V domains shown) VH: EVQLLESGGGLVQPGGSLRLSCAASGFTFSSYGMHWVRQAPGKGLEWVAVISYDGSYKYYADSVKGRFTISRDNSKNTLYLQMNSLRAEDTAVYYCAAGVPDYWGQGTLVTVSS VL: QSVLTQPPSASGTPGQRVTISCTGSSSNIGAGYDVHWYQQLPGTAPKLLIYSNNERPSGVPDRFSGSKSGTSASLAISGLRSEDEADYYCAAWDDSLNGPVFGGGTKLTVL: 6.6
- TPP-27154 (antibody, V domains shown) VH: EVQLLESGGGLVQPGGSLRLSCAASGFTFSSYGMHWVRQAPGKGLEWVSVISYDGSYKYYADSVKGRFTISRDNSKNTLYLQMNSLRAEDTAVYYCAAGVPDYWGQGTLVTVSS VL: QSVLTQPPSASGTPGQRVTISCTGSSSNIGAGYDVHWYQQLPGTAPKLLIYSNNERPSGVPDRFSGSKSGTSASLAISGLRSEDEADYYCAAWDDSLSGPVFGGGTKLTVL: 5.4

Now consider a different binder.
Field request: Kd | item: TPP-21158 (antibody, V domains shown) VH: EVQLLESGGGLVQPGGSLRLSCAASGFTFSSYGMHWVRQAPGKGLEWVAVISYDGSYKYYADSVKGRFTISRDNSKNTLYLQMNSLRAEDTAVYYCARGVPDYWGQGTLVTVSS VL: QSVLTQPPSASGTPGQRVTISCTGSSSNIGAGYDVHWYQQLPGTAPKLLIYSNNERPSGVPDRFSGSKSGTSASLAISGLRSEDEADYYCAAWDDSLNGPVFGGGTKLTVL
47
